Items are presented alongside their recorded koff.
- assay-system: canine FcRn with a poly-His tag and canine B2M heterodimer complex (canine)
- Sequence (chain, as listed by the source limits assumed, chain 1 of 2): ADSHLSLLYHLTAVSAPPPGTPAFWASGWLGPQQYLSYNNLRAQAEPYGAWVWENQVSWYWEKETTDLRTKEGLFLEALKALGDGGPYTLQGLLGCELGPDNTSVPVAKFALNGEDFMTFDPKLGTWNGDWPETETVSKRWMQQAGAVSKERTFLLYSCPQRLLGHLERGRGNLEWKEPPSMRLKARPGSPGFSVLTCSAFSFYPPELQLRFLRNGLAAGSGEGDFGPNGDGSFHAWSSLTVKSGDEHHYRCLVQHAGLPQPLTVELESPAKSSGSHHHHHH
- Sequence (b2m, as listed by the source limits assumed, chain 2 of 2): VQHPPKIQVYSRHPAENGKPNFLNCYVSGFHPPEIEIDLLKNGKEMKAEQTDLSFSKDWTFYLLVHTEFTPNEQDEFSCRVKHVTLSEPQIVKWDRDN
- assay-remarks: SPR (Biacore T200), biotinylated canine FcRn/B2M complex on chip, Fc as analyte, pH 6.0
measurement-label: koff (s⁻¹)

>  <binder>
variant canine IgG-B Fc polypeptide L(23)M (SASA tag) (protein, part only; not given: SASA tag, not shown: another chain or arm of the molecule; small tags and cut ends) Fc: PAPEMLGGPSVFIFPPKPKDTLMIARTPEVTCVVVDLDPEDPEVQISWFVDGKQMQTAKTQPREEQFNGTYRVVSVLPIGHQDWLKGKQFTCKVNNKALPSPIERTISKARGQAHQPSVYVLPPSREELSKNTVSLTCLIKDFFPPDIDVEWQSNGQQEPESKYRTTPPQLDEDGSYFLYSKLSVDKSRWQRGDTFICAVMHEALHNHYTQESLSHSPGK

>  <data-value>
0.126

$$$$
>  <binder>
variant canine IgG-B Fc polypeptide L(23)S (SASA tag) (protein, part only; not given: SASA tag, not shown: another chain or arm of the molecule; small tags and cut ends) Fc: PAPEMLGGPSVFIFPPKPKDTLSIARTPEVTCVVVDLDPEDPEVQISWFVDGKQMQTAKTQPREEQFNGTYRVVSVLPIGHQDWLKGKQFTCKVNNKALPSPIERTISKARGQAHQPSVYVLPPSREELSKNTVSLTCLIKDFFPPDIDVEWQSNGQQEPESKYRTTPPQLDEDGSYFLYSKLSVDKSRWQRGDTFICAVMHEALHNHYTQESLSHSPGK

>  <data-value>
0.241

$$$$
>  <binder>
wild-type canine IgG-B Fc polypeptide (SASA tag) (protein, part only; not given: SASA tag, not shown: another chain or arm of the molecule; small tags and cut ends) Fc: PAPEMLGGPSVFIFPPKPKDTLLIARTPEVTCVVVDLDPEDPEVQISWFVDGKQMQTAKTQPREEQFNGTYRVVSVLPIGHQDWLKGKQFTCKVNNKALPSPIERTISKARGQAHQPSVYVLPPSREELSKNTVSLTCLIKDFFPPDIDVEWQSNGQQEPESKYRTTPPQLDEDGSYFLYSKLSVDKSRWQRGDTFICAVMHEALHNHYTQESLSHSPGK

>  <data-value>
0.122

$$$$
>  <binder>
variant canine IgG-B Fc polypeptide L(23)Y (SASA tag) (protein, part only; not given: SASA tag, not shown: another chain or arm of the molecule; small tags and cut ends) Fc: PAPEMLGGPSVFIFPPKPKDTLYIARTPEVTCVVVDLDPEDPEVQISWFVDGKQMQTAKTQPREEQFNGTYRVVSVLPIGHQDWLKGKQFTCKVNNKALPSPIERTISKARGQAHQPSVYVLPPSREELSKNTVSLTCLIKDFFPPDIDVEWQSNGQQEPESKYRTTPPQLDEDGSYFLYSKLSVDKSRWQRGDTFICAVMHEALHNHYTQESLSHSPGK

>  <data-value>
0.0138

$$$$
